Measured values drawn from patent US20230416329A1 for this set.

target: bovine trypsin (bovine, UniProt P00760 24-246); assay: trypsin inhibition, BApNA substrate
Sequence (P00760 24-246): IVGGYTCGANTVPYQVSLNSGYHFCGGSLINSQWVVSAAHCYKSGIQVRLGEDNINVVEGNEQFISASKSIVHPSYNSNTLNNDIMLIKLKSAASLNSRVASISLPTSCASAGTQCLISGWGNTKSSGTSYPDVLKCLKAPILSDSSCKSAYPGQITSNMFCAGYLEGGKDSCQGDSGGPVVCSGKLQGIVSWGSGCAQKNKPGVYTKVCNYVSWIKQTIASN
Bridge positions count the residues as written; N and C are the ends. Square brackets hold non-standard residues; d marks the D form. Ends that are not written are not given here. hCys = N[C@@H](CCS)C(=O)O
Records here are stratified by Ki; strata: I: < 40 nM; II: ≥ 40 nM and < 100 nM; III: ≥ 100 nM

binder	assigned.label
CGRATKAIPPICF (disulfide 1-12 (inferred)) [BT27]	II
[hCys]GRATKSIPPIAFG[hCys] (disulfide 1-15) [BT33]	III
CGRGTKSIPPICF (disulfide 1-12 (inferred)) [BT60]	II
CSRATKSIPPICF (disulfide 1-12 (inferred)) [BT75]	I
CGRITKSIPPICF (disulfide 1-12 (inferred)) [BT49]	III
CGRATKSIPAICF (disulfide 1-12 (inferred)) [BT10]	I
CGRATRSIPPICF (disulfide 1-12 (inferred)) [BT17]	III
RCTKSIPPICF (disulfide 2-10 (inferred), also called truncated monocyclic SFTI-1 mutant) [BT45]	I
CGRATKSLPAICF (disulfide 1-12 (inferred)) [BT16]	III
CGAKATKSIPPICFPD (disulfide 1-13 (inferred)) [BT3]	III
CQRATKSIPPICF (disulfide 1-12 (inferred)) [BT79]	I
RCTKSLPPQCS (disulfide 2-10 (inferred)) [BT65]	III
